target: Cytochrome P450 1A2 (Homo sapiens, UniProt P05177)
Sequence (P05177 whole entry): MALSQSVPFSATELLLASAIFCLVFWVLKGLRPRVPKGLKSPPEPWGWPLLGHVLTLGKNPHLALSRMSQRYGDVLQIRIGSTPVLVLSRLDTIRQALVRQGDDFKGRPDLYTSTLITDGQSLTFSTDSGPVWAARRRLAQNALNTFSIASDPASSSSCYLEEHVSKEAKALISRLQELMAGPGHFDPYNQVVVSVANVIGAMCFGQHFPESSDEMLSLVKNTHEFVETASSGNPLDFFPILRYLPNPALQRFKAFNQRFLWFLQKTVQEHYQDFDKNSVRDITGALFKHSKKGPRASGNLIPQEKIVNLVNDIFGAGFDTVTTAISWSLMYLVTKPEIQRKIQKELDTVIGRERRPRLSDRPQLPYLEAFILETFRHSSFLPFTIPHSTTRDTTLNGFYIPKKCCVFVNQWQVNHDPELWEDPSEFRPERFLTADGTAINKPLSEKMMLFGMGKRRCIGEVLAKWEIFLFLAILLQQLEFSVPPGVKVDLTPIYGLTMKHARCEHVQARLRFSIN

>  <Compound>
O=C(NCC1CCCCC1)c1cnc(Nc2cccc(Cl)c2)nc1C(F)(F)F

>  <Measured On>
Cytochrome P450 1A2 (Homo sapiens, UniProt P05177)

>  <Comparison Symbol>
>

>  <IC50 (µM)>
100

$$$$
>  <Compound>
O=C(NCC1CCOCC1)c1cnc(Nc2cc(Cl)ccc2F)nc1C(F)(F)F

>  <Measured On>
Cytochrome P450 1A2 (Homo sapiens, UniProt P05177)

>  <Comparison Symbol>
=

>  <IC50 (µM)>
26

$$$$
>  <Compound>
O=C(NCC1CCOCC1)c1cnc(Nc2cc(F)cc(F)c2)nc1C(F)(F)F

>  <Measured On>
Cytochrome P450 1A2 (Homo sapiens, UniProt P05177)

>  <Comparison Symbol>
=

>  <IC50 (µM)>
24

$$$$
>  <Compound>
O=C(NCC1CCOCC1)c1cnc(Nc2ccc(Cl)cc2Cl)nc1C(F)(F)F [GW842166X]

>  <Measured On>
Cytochrome P450 1A2 (Homo sapiens, UniProt P05177)

>  <Comparison Symbol>
>

>  <IC50 (µM)>
100

$$$$
>  <Compound>
O=C(NCC1CCOCC1)c1cnc(Nc2cc(Cl)cc(Cl)c2)nc1C(F)(F)F

>  <Measured On>
Cytochrome P450 1A2 (Homo sapiens, UniProt P05177)

>  <Comparison Symbol>
>

>  <IC50 (µM)>
100

$$$$
>  <Compound>
O=C(NCC1CCC1)c1cnc(Nc2cccc(Cl)c2)nc1C(F)(F)F

>  <Measured On>
Cytochrome P450 1A2 (Homo sapiens, UniProt P05177)

>  <Comparison Symbol>
=

>  <IC50 (µM)>
8

$$$$
>  <Compound>
O=C(NCC1CCOCC1)c1cnc(Nc2ccc(Cl)c(Cl)c2)nc1C(F)(F)F

>  <Measured On>
Cytochrome P450 1A2 (Homo sapiens, UniProt P05177)

>  <Comparison Symbol>
=

>  <IC50 (µM)>
8

$$$$
>  <Compound>
O=C(NCC1CCCC1)c1cnc(Nc2cccc(Cl)c2)nc1C(F)(F)F

>  <Measured On>
Cytochrome P450 1A2 (Homo sapiens, UniProt P05177)

>  <Comparison Symbol>
=

>  <IC50 (µM)>
32

$$$$

###

pIC50: −log10 of the molar value.
Here we list compounds with their recorded pIC50 when tested on Cytochrome P450 2C9 (Homo sapiens, UniProt P11712).
Sequence (P11712 whole entry): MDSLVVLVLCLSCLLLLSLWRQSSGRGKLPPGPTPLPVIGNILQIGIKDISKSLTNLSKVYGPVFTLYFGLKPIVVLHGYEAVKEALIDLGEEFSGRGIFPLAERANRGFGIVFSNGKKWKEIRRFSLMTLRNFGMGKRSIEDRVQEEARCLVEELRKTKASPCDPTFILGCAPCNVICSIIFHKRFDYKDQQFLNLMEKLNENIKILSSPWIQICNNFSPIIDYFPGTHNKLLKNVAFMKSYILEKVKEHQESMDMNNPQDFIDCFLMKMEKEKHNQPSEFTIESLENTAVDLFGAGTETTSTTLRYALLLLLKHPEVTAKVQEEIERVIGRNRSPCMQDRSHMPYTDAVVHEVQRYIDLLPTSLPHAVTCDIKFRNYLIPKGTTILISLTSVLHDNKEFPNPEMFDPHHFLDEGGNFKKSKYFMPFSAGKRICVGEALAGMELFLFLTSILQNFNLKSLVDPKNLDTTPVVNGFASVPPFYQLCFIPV
Readout Label: pIC50

>  <Compound>
O=C(NCC1CCOCC1)c1cnc(Nc2ccc(Cl)cc2F)nc1C(F)(F)F

>  <Measured On>
Cytochrome P450 2C9 (Homo sapiens, UniProt P11712)

>  <Experimental Value>
< 4.00

$$$$
>  <Compound>
O=C(NCC1CCOCC1)c1cnc(Nc2cc(F)cc(F)c2)nc1C(F)(F)F

>  <Measured On>
Cytochrome P450 2C9 (Homo sapiens, UniProt P11712)

>  <Experimental Value>
< 4.00

$$$$
>  <Compound>
O=C(NCC1CCOCC1)c1cnc(Nc2ccc(Cl)cc2Cl)nc1C(F)(F)F [GW842166X]

>  <Measured On>
Cytochrome P450 2C9 (Homo sapiens, UniProt P11712)

>  <Experimental Value>
< 4.00

$$$$
>  <Compound>
O=C(NCC1CCOCC1)c1cnc(Nc2ccc(Cl)c(Cl)c2)nc1C(F)(F)F

>  <Measured On>
Cytochrome P450 2C9 (Homo sapiens, UniProt P11712)

>  <Experimental Value>
< 4.60

$$$$
